System: SK-OV-3 ovarian
procedureDetails: NCI tumour cell line growth inhibition, 48 h
Reported values of TGI for individual entries
quantityKind: TGI

| compound | targetOfAssay | quantityKind | measValue |
| --- | --- | --- | --- |
| CCOC(=O)Oc1c(OC)cc(C(=O)c2ccc(OC)c(O)c2OC)cc1OC | SK-OV-3 ovarian | TGI | > 100 µM |
| CN(C)CCNc1ccc2c(=O)n(CCN(C)C)c(=O)n3c4ccc(O)cc4c(=O)c1c23 | SK-OV-3 ovarian | TGI | 1.04 µM |
| CCCCN(CCCC)Cc1cc(Nc2ccnc3cc(Cl)ccc23)ccc1O | SK-OV-3 ovarian | TGI | > 100 µM |
| CCc1cccc(C)c1NS(=O)(=O)c1ccccc1 | SK-OV-3 ovarian | TGI | > 100 µM |
| COc1ccc(C2=Nn3c(nnc3-c3cc(Cl)cc(Cl)c3Cl)SC2)cc1 | SK-OV-3 ovarian | TGI | > 100 µM |
| O=C(O)CCc1nc2c(n1-c1ccccc1)C(=O)c1ccccc1C2=O | SK-OV-3 ovarian | TGI | > 100 µM |
| COc1cc2c(c(O)c1O)C(=O)C1CCC(=O)N1C2c1cccc2ccccc12 (stereo not given) | SK-OV-3 ovarian | TGI | > 50 µM |
| COC1CC(N)(c2ccccc2)C(O)C(C)O1 (stereo not given) | SK-OV-3 ovarian | TGI | > 100 µM |
| O=C1c2cccc([N+](=O)[O-])c2C(=O)N1Cc1ccccc1 | SK-OV-3 ovarian | TGI | > 100 µM |
| NC(=O)CNC(=O)[C@@H]1CC(OCCC(=O)O)CN1C(=O)C1CCCN1C(=O)OCc1ccccc1 (stereo not given in full) | SK-OV-3 ovarian | TGI | > 100 µM |

====

Test system: MCF7 breast
procedureDetails: NCI tumour cell line growth inhibition, 48 h

| compound | TGI |
| --- | --- |
| c1ncn(C23C4C5C6C4C2C6C53)n1 (centres undefined) | > 100 µM |
| Cc1ccc(S(=O)(=O)NC(=O)Nc2nnc(S(N)(=O)=O)s2)cc1 | > 100 µM |
| O=C(Nc1ccc(N2C(=O)CSC2c2ccccc2O)cc1)c1ccc(N2C(=O)CSC2c2ccccc2O)cc1 (centres undefined) | > 100 µM |
| COC(=O)Cc1cc(O)c2c(c1O)C(=O)c1ccccc1C2=O | > 56.3 µM |

====

Recorded TGI by entry
Tested on: A498 renal
procedureDetails: NCI tumour cell line growth inhibition, 48 h
quantityKind: TGI

| compound | quantityKind | measValue |
| --- | --- | --- |
| O=C(O)CN(CC(=O)O)C1CCCCC1N1CC(=O)OC(=O)C1 (stereo not drawn) | TGI | > 100 µM |
| Cc1c(OC(C)C(=O)O)ccc2c(-c3ccccc3)cc(=O)oc12 (stereo not drawn) | TGI | > 100 µM |
| COC(=O)C1=CO[C@@H](OC2CC(CO)C(O)C(O)C2O)[C@@H]2[C@@H](C)[C@@H](OC(=O)/C=C/c3ccccc3)[C@@H](O)[C@H]12 (stereo partly drawn) (tested in a mixture with another compound) | TGI | > 100 µM |
